Data credit: patent EP4656642A1

- assay-target: ERα (Homo sapiens)
- Sequence (P03372 1-595): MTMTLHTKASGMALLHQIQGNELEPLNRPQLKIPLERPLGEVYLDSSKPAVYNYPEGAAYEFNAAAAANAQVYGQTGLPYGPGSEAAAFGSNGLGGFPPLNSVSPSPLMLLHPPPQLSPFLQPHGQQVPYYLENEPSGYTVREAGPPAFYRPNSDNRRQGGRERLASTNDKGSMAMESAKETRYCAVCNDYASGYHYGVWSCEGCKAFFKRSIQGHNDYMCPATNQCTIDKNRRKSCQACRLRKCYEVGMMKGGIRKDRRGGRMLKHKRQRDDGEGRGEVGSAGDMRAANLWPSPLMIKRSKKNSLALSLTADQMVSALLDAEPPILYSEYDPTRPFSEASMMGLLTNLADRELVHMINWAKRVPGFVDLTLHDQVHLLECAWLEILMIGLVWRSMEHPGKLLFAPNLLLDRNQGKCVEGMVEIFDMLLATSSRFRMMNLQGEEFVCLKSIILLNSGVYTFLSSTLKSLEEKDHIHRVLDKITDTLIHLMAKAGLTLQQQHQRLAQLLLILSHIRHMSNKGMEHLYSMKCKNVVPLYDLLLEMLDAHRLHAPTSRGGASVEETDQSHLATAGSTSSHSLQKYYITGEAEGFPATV
- procedure-details: Degradation of ERα in MCF-7 cells (immunoblotting, 4 h)
- Format: cell-based
- condition-context: 10nM compound
measured-endpoint: Degradation rate (%) of ERα in MCF-7 cells
Number first, unit second: that is the form wanted.

Lab book: Degradation rate (%) of ERα in MCF-7 cells of C[C@H]1CN(C2CC3(CCN(c4ccc([C@@H]5c6ccc(O)cc6CC[C@@H]5c5ccccc5)cc4)CC3)C2)CC[C@H]1N1CCC2(CC1)COc1c2ccc2c1CN(C1CCC(=O)NC1=O)C2=O (some centres unmarked) noted as 71%

The compound O=C1CCC(N2Cc3c(ccc4c3OC3(CC4)CCN(C4CCN(C(=O)C5CCN(c6ccc([C@@H]7c8ccc(O)cc8CC[C@@H]7c7ccccc7)cc6)CC5)CC4)CC3)C2=O)C(=O)N1 (some centres unmarked) showed Degradation rate (%) of ERα in MCF-7 cells equal to 20%

The reported value for O=C1CCC(N2C(=O)c3cc4c(cc3C2=O)OC2(CCN(C3CCC5(CC3)CCN(c3ccc(C6c7ccc(O)cc7CCC6c6ccccc6)cc3)CC5)CC2)C4)C(=O)N1 (centres unmarked) in terms of Degradation rate (%) of ERα in MCF-7 cells is 8%

Documented Degradation rate (%) of ERα in MCF-7 cells of N#CC1(CN2CCC3(CC2)COc2c3ccc3c2CN(C2CCC(=O)NC2=O)C3=O)CCN(C(=O)C2CCN(c3ccc([C@@H]4c5ccc(O)cc5CC[C@@H]4c4ccccc4)cc3)CC2)CC1 (some centres unmarked) : 46%

O=C1CCC(N2Cc3c(ccc4c3OCC43CCN(C(=O)CN(CC4CC4)CC4CCN(c5ccc([C@@H]6c7ccc(O)cc7CC[C@@H]6c6ccccc6)cc5)CC4)CC3)C2=O)C(=O)N1 (some centres unmarked) yielded Degradation rate (%) of ERα in MCF-7 cells of 47%

----------
- assay-target: ERα (Homo sapiens)
- procedure-details: Degradation of ERα in MCF-7 cells (immunoblotting, 4 h)
- Format: cell-based
- condition-context: 1nM compound
measured-endpoint: Degradation rate (%) of ERα in MCF-7 cells
Return type: number; implicit unit %.

Kindly note: ERα (Homo sapiens), O=C1CCC(N2Cc3c(ccc4c3OCC43CCN(C(=O)C4CCN(CC5CCN(c6ccc([C@@H]7c8ccc(O)cc8CC[C@@H]7c7ccccc7)cc6)CC5)CC4)CC3)C2=O)C(=O)N1 (stereo partly drawn) [J8] , Degradation rate (%) of ERα in MCF-7 cells value reported: 78

Tested on ERα (Homo sapiens): O=C1CCC(N2Cc3c(ccc4c3OCC43CCN(C4CCN(C5CC6(CCN(c7ccc([C@@H]8c9ccc(O)cc9CC[C@@H]8c8ccccc8)cc7)CC6)C5)[C@H](C(=O)NC5CC5)C4)CC3)C2=O)C(=O)N1 (stereo partly drawn) . Observed Degradation rate (%) of ERα in MCF-7 cells: 63

Observed Degradation rate (%) of ERα in MCF-7 cells, ERα (Homo sapiens), O=C1CCC(N2Cc3c(ccc4c3OCC43CCN(C4CC5(CCN(C6CC7(CCN(c8ccc([C@@H]9c%10ccc(O)cc%10CC[C@@H]9c9ccccc9)cc8)CC7)C6)CC5)C4)CC3)C2=O)C(=O)N1 (stereo partly drawn) : 29

Assay ERα (Homo sapiens), sample C[C@H]1C[C@@H](N2CCC3(CC2)COc2c3ccc3c2CN(C2CCC(=O)NC2=O)C3=O)CCN1C(=O)C1CCN(c2ccc([C@@H]3c4ccc(O)cc4CC[C@@H]3c3ccccc3)cc2)CC1 (stereo partly drawn) , Degradation rate (%) of ERα in MCF-7 cells read: 38

Tested on ERα (Homo sapiens): C[C@@H]1Cc2c(ccc3[nH]ncc23)[C@@H](c2ccc(N3CCN(C[C@H]4CC[C@H](C(=O)N5CCC6(CC5)COc5c6ccc6c5CN(C5CCC(=O)NC5=O)C6=O)CC4)CC3)cn2)N1CC(F)(F)F (stereo partly drawn) . Observed Degradation rate (%) of ERα in MCF-7 cells: 48

The reported Degradation rate (%) of ERα in MCF-7 cells value, ERα (Homo sapiens), for O=C1CCC(N2Cc3c(ccc4c3OCC43CCN(C4CCN(C(=O)C5CCN(c6ccc(C7c8ccc(O)cc8CCC7c7ccccc7)cc6)CC5)C(C(=O)N5CCCC5)C4)CC3)C2=O)C(=O)N1 (stereo not drawn) reads 48

The reported Degradation rate (%) of ERα in MCF-7 cells value, ERα (Homo sapiens), for O=C1CCC(N2C(=O)c3ccc4c(c3C2=O)OCC42CCN(C3CC4(CCN(c5ccc([C@@H]6c7ccc(O)cc7CC[C@@H]6c6ccccc6)cc5)CC4)C3)CC2)C(=O)N1 (stereo partly drawn) reads -2

Note to self: Degradation rate (%) of ERα in MCF-7 cells of O=C1CCC(N2Cc3c(ccc4c3OCC43CCN(C[C@H]4CC[C@H](C#Cc5ccc([C@@H]6c7ccc(O)cc7CC[C@@H]6c6ccccc6)cc5)CC4)CC3)C2=O)C(=O)N1 (stereo partly drawn) with ERα (Homo sapiens) was 0

The molecule O=C1CCC(N2Cc3c(ccc4c3OCC43CCN(C4CN(C5CCN(c6ccc([C@@H]7c8ccc(O)cc8CC[C@@H]7c7ccccc7)cc6)CC5)C4)CC3)C2=O)C(=O)N1 (stereo partly drawn) , when measured on ERα (Homo sapiens), yielded Degradation rate (%) of ERα in MCF-7 cells of 42

Bench note, ERα (Homo sapiens): entry O=C1CCC(N2Cc3c(ccc4c3OCC43CCN(CC4CCN(c5ccc([C@@H]6c7ccc(O)cc7CC[C@@H]6c6ccccc6)cc5)CC4)CC3)C2=O)C(=O)N1 (stereo partly drawn) , its Degradation rate (%) of ERα in MCF-7 cells = -23

Summary: C[C@@H]1CN(C(=O)C2(F)CCN(c3ccc([C@@H]4c5ccc(O)cc5CC[C@@H]4c4ccccc4)cc3)CC2)CCC1N1CCC2(CC1)COc1c2ccc2c1CN(C1CCC(=O)NC1=O)C2=O (stereo partly drawn) , ERα (Homo sapiens), Degradation rate (%) of ERα in MCF-7 cells = 40

Let me check: O=C1CCC(N2Cc3c(ccc4c3OCC43CCN(CC(=O)N4CC5(CCN(c6ccc([C@@H]7c8ccc(O)cc8CC[C@@H]7c7ccccc7)cc6)CC5)C4)CC3)C2=O)C(=O)N1 (stereo partly drawn) , system ERα (Homo sapiens), measured Degradation rate (%) of ERα in MCF-7 cells is 30

Per the reported ERα (Homo sapiens) data, O=C1CCC(N2C(=O)c3cc4c(cc3C2=O)OC2(CC4)CN(CC3CCN(c4ccc([C@@H]5c6ccc(O)cc6CC[C@@H]5c5ccccc5)cc4)CC3)C2)C(=O)N1 (stereo partly drawn) has Degradation rate (%) of ERα in MCF-7 cells of -13

Here C[C@@H]1CN(C(=O)C2CCN(c3cc(F)c(C4c5ccc(O)cc5C[C@@H](C)N4CC(F)F)c(F)c3)CC2)CCC1N1CCC2(CC1)COc1c2ccc2c1CN(C1CCC(=O)NC1=O)C2=O (stereo partly drawn) was tested on ERα (Homo sapiens), and its Degradation rate (%) of ERα in MCF-7 cells came to 60

O=C1CCC(N2Cc3c(ccc4c3OCC43CCN(CC(=O)N4CCC5(CCC(C#Cc6ccc([C@@H]7c8ccc(O)cc8CC[C@@H]7c7ccccc7)cc6)CC5)CC4)CC3)C2=O)C(=O)N1 (stereo partly drawn) tested on ERα (Homo sapiens) gave Degradation rate (%) of ERα in MCF-7 cells: 7

ERα (Homo sapiens) Degradation rate (%) of ERα in MCF-7 cells of O=C1CCC(N2Cc3cc4c(cc3C2=O)CCC2(CN(C3CCN(C(=O)c5ccc([C@@H]6c7ccc(O)cc7CC[C@@H]6c6ccccc6)cc5)CC3)C2)O4)C(=O)N1 (stereo partly drawn) is -28

Record for O=C1CCC(N2Cc3c(ccc4c3OCC43CCN(C(=O)C4CCC(CN5CCN(c6ccc(C7c8ccc(O)cc8CCC7c7ccccc7)cc6)CC5)CC4)CC3)C2=O)C(=O)N1 (stereo not drawn) [C5] under target or system ERα (Homo sapiens): Degradation rate (%) of ERα in MCF-7 cells reported as 43

ERα (Homo sapiens) Degradation rate (%) of ERα in MCF-7 cells of O=C1CCC(N2Cc3c(ccc4c3OCC43CCN(C4CCN(C(=O)C5CCN(c6ccc([C@@H]7c8ccc(O)cc8CC[C@@H]7c7ccccc7)cc6)CC5)[C@H](C(=O)N5CCC5)C4)CC3)C2=O)C(=O)N1 (stereo partly drawn) is 25

O=C1CCC(N2Cc3c(ccc4c3OC3(CC4)CCN(C4CC5(CCN(c6ccc([C@@H]7c8ccc(O)cc8CC[C@@H]7c7ccccc7)cc6)CC5)C4)CC3)C2=O)C(=O)N1 (stereo partly drawn) on ERα (Homo sapiens) gives Degradation rate (%) of ERα in MCF-7 cells = -11

Sample C[C@@H]1Cc2c(ccc3[nH]ncc23)C(c2ccc(N3CCC4(CCN(C(=O)CN5CCC6(CC5)COc5c6ccc6c5CN(C5CCC(=O)NC5=O)C6=O)C4)CC3)cn2)N1CC(F)(F)F (stereo partly drawn) , system: ERα (Homo sapiens). Its Degradation rate (%) of ERα in MCF-7 cells is 5

GET /values?item= O=C1CCC(N2Cc3c(ccc4c3OCC43CCN(CC4(F)CCN(C(=O)C5CCN(c6ccc([C@@H]7c8ccc(O)cc8CC[C@@H]7c7ccccc7)cc6)CC5)CC4)CC3)C2=O)C(=O)N1 (stereo partly drawn) &system= ERα (Homo sapiens) returns Degradation rate (%) of ERα in MCF-7 cells: 7
